ASSAY OVERVIEW: Plasma drug concentrations and pharmacokinetics after a single intravenous or subcutaneous injection of SIPI-G9 in SD rats
ASSAY CONTEXT: rat, in vivo, iv, 1 mg/kg, T1/2, SIPI-G9 1 mg/kg i.v., SD rats, individual rats
Peptide text beside a SMILES is read from it. * marks the point of attachment. X1 = CC(=O)N[C@H]1C(*)O[C@H](CO)[C@@H](O)[C@@H]1O
ENDPOINT LABEL: half-life (min)
Express your answer in min, writing the number without its unit.

half-life reported for this molecule CC(=O)N[C@H]1C(OC[C@H](NC(=O)[C@@H](NC(=O)[C@H](Cc2ccc(O)cc2)NC(=O)[C@@H](NC(=O)[C@H](CCC(N)=O)NC(=O)CN)[C@@H](C)OC2O[C@H](CO)[C@@H](O)[C@H](O)[C@H]2NC(C)=O)[C@@H](C)O)C(=O)NCC(=O)O)O[C@H](CO)[C@@H](O)[C@@H]1O (stereo partly shown) [SIPI-G9, GQT(Glc)YTS(Glc)G] (H-GQT(X1)YTS(X1)G-OH) : 8.59
